From: patent EP4786492A1

Biological target: T1, human DLL1 protein (human, UniProt O00548 18-540, limits assumed)
T1 construct: bought protein; construct and tag not described; also called hDLL1
T1 sequence (looked up): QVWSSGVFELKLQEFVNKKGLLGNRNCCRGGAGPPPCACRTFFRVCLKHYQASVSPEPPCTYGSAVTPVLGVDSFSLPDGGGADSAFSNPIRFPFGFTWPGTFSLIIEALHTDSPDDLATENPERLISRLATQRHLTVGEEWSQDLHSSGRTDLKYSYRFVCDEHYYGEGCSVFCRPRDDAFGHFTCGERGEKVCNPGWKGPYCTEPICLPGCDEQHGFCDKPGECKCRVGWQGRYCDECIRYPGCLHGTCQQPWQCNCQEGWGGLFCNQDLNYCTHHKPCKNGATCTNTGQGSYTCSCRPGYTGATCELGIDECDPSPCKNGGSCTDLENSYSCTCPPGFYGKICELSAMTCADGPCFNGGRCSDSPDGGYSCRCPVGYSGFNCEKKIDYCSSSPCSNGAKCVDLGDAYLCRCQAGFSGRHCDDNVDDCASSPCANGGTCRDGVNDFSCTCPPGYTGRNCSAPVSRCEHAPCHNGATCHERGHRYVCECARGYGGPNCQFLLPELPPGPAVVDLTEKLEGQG
Experiment: ELISA, maximum over 0.1-100 nM
measured.parameter: Emax of OD450 nm binding value (OD450)
Report the value in OD450 with no unit label.

// Emax of OD450 nm binding value value for mab011 scFv-hFc (Fc fusion, human-murine chimeric scFv-hFc, VL-linker-VH-human IgG1 Fc; not shown: linker; Fc fragment of human IgG1) scFv (part 1 of 2): DIVLTQSPATLSVTPGDSVSLSCRASQSISNNLHWYQQKSHESPRLLIKYASQSISGIPSRFSGSGSGTDFTLSINSVETEDFGMYFCQQSNSWPWTFGGGTKLEIK scFv (part 2 of 2): EVQLQQSGPELVKPGASVKISCKASGYTFTDYYMNWVKQSHGKSLEWIGDISPNYGGTNYNQKFKGKATLTVDKSSSTACMELRSLTSEDSAVYYCTRSFYYYGTGYDWYFDVWGTGTTVTVSS : 0.06

Form field Emax of OD450 nm binding value, entry mab014 scFv-hFc (Fc fusion, human-murine chimeric scFv-hFc, VL-linker-VH-human IgG1 Fc; not shown: linker; Fc fragment of human IgG1) scFv (part 1 of 2): DIQMTQSSSSFSVSLGDRVTITCKASEDIYNRLAWYQQKPGNTPRLLISGATSLETGVPSRFSGSGSGKDFTLSITSLQTEDVATYYCQQYWSLPWTFGGGTKLEIK scFv (part 2 of 2): EVQLHQSGPELVKPGTSVKISCKASGYTFTDYYMNWVKQSHGKSLEWIGDINPNHGDTGYNQKFTGKATLTVDKSSSTAYMELRSLTSEDSAVYYCARNFFYYGTTYGWYFDVWGTGTTVTVSS : 0.08

Lab note: measured Emax of OD450 nm binding value of mab012 scFv-hFc (Fc fusion, human-murine chimeric scFv-hFc, VL-linker-VH-human IgG1 Fc; not shown: linker; Fc fragment of human IgG1) scFv (part 1 of 2): DVLMTQTPLSLPVSLGDQASISCRSSQSIVHSDGNTYLEWYLQKPGQSPKLLIYKVSNRFSGVPDRFSGSGSGTDFTLKISRVEAEDLGFYYCFQGSHVPFTFGSGTKLEIK scFv (part 2 of 2): QVQLQQSGPELVKPGASVKISCKASGYTFTDYYIHWVKQRPGQGLEWIGWTLPGSGSPYYNEKFKGKATLTVDKSSSTAYMLLSSLTSEDSAVYFCARWHYYYGSSYHFDYWGQGTTLTVSS was 0.08

mab006 scFv-hFc (Fc fusion, human-murine chimeric scFv-hFc, VL-linker-VH-human IgG1 Fc; not shown: linker; Fc fragment of human IgG1) scFv (part 1 of 2): DVQITQSPSYLAASPGETITINCRATKSISKYLAWYQEKPGKTNKLLIFSGSTLQSGIPSRFRGSGSGTDFTLTISSLEPEDFAMYYCQQHHEYPYTFGGGTKLEIK scFv (part 2 of 2): QVQLQQPGAELVRPGTSVKLSCKASGYTFTSYWMHWVRQRPGQGLEWIGVIDPSDSLANYNQEFKGKATLTVDTSSSTAYMQLSSLTSEDSAVYYCARDSTVVAPMDYWGQGTSVTVSS has a reported Emax of OD450 nm binding value of 0.08
